system: clinical strains of Candida albicans; test: MIC, clinical yeast strains, Candida albicans; assay type: cell-based; design: unit: μg/ml; conditions: Candida albicans clinical yeast strain 5
Where a SMILES comes first, the peptide text is derived from it. [ ]: non-standard residue; d: D form.
We begin with a simple list: items and their reported Minimum inhibitory concentration.
Hey, just send me the number, nothing else.

molecule="CC(C)C[C@@H](NC(=O)[C@H](N)CCCCN)C(=O)N[C@H](CCCCN)C(=O)N[C@H](Cc1c[nH]c2ccccc12)C(=O)N[C@H](Cc1ccccc1)C(=O)N[C@H](Cc1c[nH]c2ccccc12)C(=O)N[C@H](CC(C)C)C(=O)N[C@H](Cc1ccccc1)C(=O)N[C@H](CCCCN)C(=O)N[C@H](CCCCN)C(=O)N[C@H](CCCNC(=N)N)C(=O)O [Chain311D] (H-[dK][dL][dK][dW][dF][dW][dL][dF][dK][dK][dR]-OH)" numeric_value=16

Data request, read-out Minimum inhibitory concentration, for CC[C@@H](C)[C@@H](NC(=O)[C@@H](CC(C)C)NC(=O)[C@@H](CCCNC(=N)N)NC(=O)[C@H](N)CCCNC(=N)N)C(=O)N[C@H](Cc1c[nH]c2ccccc12)C(=O)N[C@H](CCCNC(=N)N)C(=O)N[C@H](CCCNC(=N)N)C(=O)N[C@H](Cc1ccccc1)C(=O)N[C@H](CCCCN)C(=O)N[C@H](Cc1c[nH]c2ccccc12)C(=O)N[C@H](CC(C)C)C(=O)N[C@H](CCCNC(=N)N)C(=O)O [Chain204D] (H-[dR][dR][dL][dI][dW][dR][dR][dF][dK][dW][dL][dR]-OH) 8

Note, next up: CC(C)C[C@@H](NC(=O)[C@@H](Cc1c[nH]c2ccccc12)NC(=O)[C@@H](Cc1ccccc1)NC(=O)[C@@H](Cc1c[nH]c2ccccc12)NC(=O)[C@@H](CCCCN)NC(=O)[C@@H](CCCNC(=N)N)NC(=O)[C@H](N)Cc1c[nH]c2ccccc12)C(=O)N[C@H](Cc1ccccc1)C(=O)N[C@H](CCCCN)C(=O)N[C@H](CCCCN)C(=O)N[C@H](CCCNC(=N)N)C(=O)O [Chain309D] (H-[dW][dR][dK][dW][dF][dW][dL][dF][dK][dK][dR]-OH) 32

Note, next up: CC(C)C[C@@H](NC(=O)[C@@H](CCCCN)NC(=O)[C@@H](Cc1c[nH]c2ccccc12)NC(=O)[C@@H](CCCCN)NC(=O)[C@@H](C)NC(=O)[C@@H](Cc1c[nH]cn1)NC(=O)[C@@H](CC(C)C)NC(=O)[C@@H](CCCNC(=N)N)NC(=O)[C@@H](Cc1c[nH]c2ccccc12)NC(=O)[C@H](N)Cc1c[nH]c2ccccc12)C(=O)N[C@H](Cc1c[nH]c2ccccc12)C(=O)O [Chain109D] (H-[dW][dW][dR][dL][dH][dA][dK][dW][dK][dL][dW]-OH) 128

Note, next up: CC(C)C[C@@H](NC(=O)[C@H](N)CCCNC(=N)N)C(=O)N[C@H](CCCCN)C(=O)N[C@H](Cc1c[nH]c2ccccc12)C(=O)N[C@H](Cc1ccccc1)C(=O)N[C@H](CC(C)C)C(=O)N[C@H](CC(C)C)C(=O)N[C@H](Cc1ccccc1)C(=O)N[C@H](CCCNC(=N)N)C(=O)N[C@H](CCCCN)C(=O)N[C@H](CCCNC(=N)N)C(=O)O [Chain308D] (H-[dR][dL][dK][dW][dF][dL][dL][dF][dR][dK][dR]-OH) 16
